Origin of the recorded values: patent US20070184519A1

Molecular target: DRB5*0101 (Homo sapiens, UniProt P01903+Q30154)
Construct: Epstein-Barr virus (EBV) transformed homozygous cell lines were used as sources of human HLA Class II molecules; endogenous in cells; host or cells: GM3107 (EBV-transformed homozygous B cell line)
Test: Class II peptide-binding assay DRB5*0101 (DR2w2a)

{"columns": ["chemical.string", "IC50"],
 "data": [
  ["CC(C)C[C@H](NC(=O)CN)C(=O)N[C@@H](CCCNC(=N)N)C(=O)N[C@@H](CO)C(=O)N[C@@H](CC(C)C)C(=O)N[C@H](C(=O)N[C@H](C(=O)N[C@@H](CC(C)C)C(=O)N[C@@H](CC(C)C)C(=O)N[C@@H](CC(=O)O)C(=O)N[C@@H](C)C(=O)N[C@@H](CC(C)C)C(=O)NCC(=O)N[C@@H](C)C(=O)N[C@@H](CCC(N)=O)C(=O)O)[C@@H](C)O)[C@@H](C)O", "0.804 µM"],
  ["CC(C)C[C@H](NC(=O)[C@H](Cc1c[nH]cn1)NC(=O)[C@H](CC(=O)O)NC(=O)[C@H](CC(C)C)NC(=O)[C@@H](NC(=O)[C@H](CC(N)=O)NC(=O)[C@@H](N)CC(=O)O)C(C)C)C(=O)N[C@H](C(=O)NCC(=O)N[C@@H](CCCNC(=N)N)C(=O)N[C@@H](CO)C(=O)N[C@@H](CS)C(=O)O)[C@@H](C)O", "> 20 µM"],
  ["CC[C@H](C)[C@H](NC(=O)CNC(=O)[C@@H]1CCCN1C(=O)[C@H](CC(C)C)NC(=O)[C@H](CC(=O)O)NC(=O)[C@H](Cc1ccccc1)NC(=O)[C@H](CCC(=O)O)NC(=O)[C@@H](NC(=O)[C@@H](NC(=O)[C@H](Cc1ccccc1)NC(=O)[C@@H](N)CCC(=O)O)C(C)C)C(C)C)C(=O)N[C@@H](CCCCN)C(=O)N[C@@H](C)C(=O)O", "> 20 µM"]
]}

* * *

Molecular target: DRB3*0101 (Homo sapiens, UniProt P01903+P79483)
Construct: expressed in transfected cells; host or cells: transfected fibroblasts TR81.19
Assay: Class II peptide-binding assay DRB3*0101 (DR52a)
pIC50: −log10 of the molar value.
Each entry below carries its reported pIC50.

{"columns": ["chemical.string", "pIC50"],
 "data": [
  ["CC(C)C[C@H](NC(=O)[C@H](Cc1c[nH]cn1)NC(=O)[C@H](CC(=O)O)NC(=O)[C@H](CC(C)C)NC(=O)[C@@H](NC(=O)[C@H](CC(N)=O)NC(=O)[C@@H](N)CC(=O)O)C(C)C)C(=O)N[C@H](C(=O)NCC(=O)N[C@@H](CCCNC(=N)N)C(=O)N[C@@H](CO)C(=O)N[C@@H](CS)C(=O)O)[C@@H](C)O", 4.95],
  ["CC[C@H](C)[C@H](NC(=O)[C@H](CO)NC(=O)[C@H](CCC(=O)O)NC(=O)[C@H](CC(C)C)NC(=O)[C@H](C)NC(=O)[C@@H](N)CC(=O)O)C(=O)N[C@@H](CCSC)C(=O)N[C@H](C(=O)N[C@H](C(=O)N[C@@H](CCCCN)C(=O)N[C@@H](CO)C(=O)N[C@H](C(=O)N[C@@H](CO)C(=O)N[C@@H](Cc1ccccc1)C(=O)N[C@@H](CCCNC(=N)N)C(=O)O)C(C)C)[C@@H](C)O)[C@@H](C)O", "< 4.70"],
  ["CC[C@H](C)[C@H](NC(=O)[C@@H](NC(=O)[C@H](CCCCN)NC(=O)[C@H](CCC(=O)O)NC(=O)[C@H](CC(C)C)NC(=O)[C@H](CC(C)C)NC(=O)[C@@H]1CCCN1C(=O)[C@H](CC(C)C)NC(=O)[C@@H](N)CC(C)C)C(C)C)C(=O)NCC(=O)N[C@@H](C)C(=O)NCC(=O)N[C@@H](CCCCN)C(=O)N1CCC[C@H]1C(=O)N[C@@H](CC(C)C)C(=O)O", "< 4.70"]
]}
